Value source: the DeepSol protein solubility set

- assayRemarks: soluble on expression in E. coli; label from the status in PepcDB or PDB records
assayMetric: soluble on expression in E. coli

# sequence, observedMeasurement
records = [
    ("MGSDKIHHHHHHMKKLALISLDGNGIYNLKYMPFLSELAEKGDIFTVDSIFPTLTDLVHTTVMTGVEPRHHWVVENGYYDRLSGVRVKFYEYDVAFNPHKVIKAPLIQDILRQRGVRIASVSGYTMPPFSNVDVRIFPPFFSSDELYRRHGRDWKKDVWVLNSALYLYEECKPDLLLVHFASIDGMQHDHGPESREALKAVETVDSAIRALWERLKDEYAFIIFADHGQEEVHTWVNLREYLRNKGIETLRVSSGGGVHVYLKDPREREDAYEVLRRAPGVKAVFLREDLPYLNAPVSGDLIVSAKEGFWFCHHRECKGIKGKSYWVRGMHGSLNERVVKVPLVLWNLEAKKEEATLYDIAPTILKFFGVEKRVEMIGKSLI", "not soluble"),
    ("GSFEEDLSQKNTWWSRGIYELLGYTPFEVEPRAELFFQHIKEPHRTLIKEHYLHLNQSQETQYISEDYEILTKKGEGRWLNSSVKLIRDEKGTLLKAQGAILDVT", "not soluble"),
    ("MNVLIVDDEPLARERLSRMVNEIEGYRVLEDSASNGEEALALIEKHKPDVVLLDIRMPGIDGLQVAAKLCEREAPPAVVFCTAHDEFALEAFQVSAVGYLVKPVRAEHLIEALKKAERPNRVQLAAMTRPAAESGSGPRTHISARTRKGIELIPLDQVIYFIADHKYVTLRHEGGEVLLDEPLKALEDEFGDRFVRIHRNALVARKRIESMKRTPVGHFELFLRGLNGDALIVSRRHVAGVRKMMQQL", "soluble"),
    ("MIKGIGLDMIDLERVKQVVEKNPRFIERVLTEKEIKQFEKYEGNRKIEFLAGRFAAKEAYAKANGTGFGKHLSFTDVEILQVEDGRPHVTLPVKSGENVFVSITHTARSAAAQVIIEI", "not soluble"),
    ("MGSDKIHHHHHHMIYMRLKLSFIYDGDKFQPNKHAVQGFIYNMLRGTEYEDRHNRRGFKFFTFSDVFRDSKGYYSLLIASPDSGFINALYLSLKDRDHVYIGKDEIKLVEVKKFKLKLKRAFQTGSPVVIYKDSRKNEYFKLHEHRDLLFFLQRLKENAEKKFNSFYGDEFHLEGLIFDRVIPKVRKNGKVDVYVKVVKNGVPFPVIGTNWELLEKERIKPEERRFYRFIMDCGLGEKNSLGFGFLNPIKGVKN", "not soluble"),
    ("MGSDKIHHHHHHMASAPQANLPMFYNDLMPLNSRDHAAWKAKNADAAPWLIGQHAIPLTAEEFPQAARHYPIIFASGDNPVPLALMGLNEGVNVFVDEDGKVTQPVYIPAYVRRYPFLLAKLNPNSEELSLCFDPSSGLIGDSVDGVELFSDGQPSEATKAALGFCEQFEQAGQRTQAFIDELKKHDLLMEGEVAIQQQGNEQPFIYRGFQMVNQDKLRETRGDVLRGWAQSGLLPLLYAHLFSLELISQIFGAQVQMGKGPIPATPVPAE", "not soluble"),
    ("MSLSFHEIRFPASLSFGSVGGPERRTDVVTLANGFEERNTPWAHSRRRYDAGMGMRSLDDIEALIAFFEARQGQIFGFRWKDWSDYKSARPTAEVDFRDQVIGLGDGVQTGFQLLKSYRSGDSIYPRPIAKPVDGTVRMGLGQEEIKEGIDFTLDPTTGMVVLSHPPENGIEVVAGFEFDVPVRFDTDRILTSVASFQAGDVPNVPVVEVRAEGHHHHHH", "soluble"),
    ("MSLSIKNIKRIITAWKPSTFETYKKTFEKYGGSVNMHPDVVSYFMIHHDWKFDFFHYEKDGDIKGSYFLCNGKQIGIMARRSYPLSSDEVLIPFSPHARCFFPDKTNKLSIINKQNIINATWKIARKKQNCIIKESFSPKFEKTRRNEIQRFIRNGGEIKCISQLSDKEISSSYISLFHSRFGGTLPCYEYDNLLMFISHLRELMFGHVLFWDNKPCAIDIVLKSESSCNVYYDVPNGAVLNDENCMKLSPGSVLMWLNIDKARRYCQDNNKKMIYSIGAFRPEWKYKLLWSVPCKVGKCLCEGHHHHHH", "soluble"),
    ("MGSDKIHHHHHHMRIVVSGGGTGGHIYPALAMIREIERRTPCEVLYIGTENGLEADIVRRAGIPFESIEISGIRRSLSFENVKTGFRFLKSVVRVRKLLRDFQPDIVVGTGGFVCGPVLYTAAKMGYKTLVHEQNSLPGITNKFLARYVDRVALSFKGSGHHFGKNKGKTILIGNPRASEVAMLQIDPVEEKRKYGFEQDRPLIVVYGGSRGAPAINKAVVDMIPKLTETDWSLLFVTGQVHYEDIQAQLGTLPDRIQLRPFIYDLPLILKASQLVISRSGASTLAELTTLGLPSILIPSPYVTENHQEVNASSLVETGASLLIRESELTGDRLFDACTKAIADQADMSKASLALGMPNAASDLVDELLRLIQRKN", "not soluble"),
    ("MHKNGNNGPVIDTKWHYLGPDSEKYGPYMSKDMLFWLQAGYFNDGLQLKTENEPNYHTLGEWSQLLGTHPFSMPVHSLDATIAQMNSMRPHGAMMMVPPGLQNQFQPPMPMRFPPFLPMPLLHQMNQNGPPMGAQMHSQPPSEPIDAGSLSHTPDSENETRLNEQTLQQPPSWLIALGLAGHGRKPHHHQQILAHQHIPQMQHANVATDQVVMKSVECQTEPVEISKEQASRVLSELLGQMVIIN", "not soluble"),
    ("MGSDKIHHHHHHMREGSIVKLESLINQKYSNLNQTEKEILAFIIENRDFVRKASLSEVAEKSLFSKSAIFRCCKKIGLTGFSQLRYVLTDEKDSEQDSLISVDYLAQTVKSMLWTVNQFKSTNADDIYATLAAAGTIYIYSTGWQQQIMAQQLQRDLYLIGKFAFVFPTGHDEMQLSSTKIKPGDAVIVISYKGMNATIVQLVNNLKLNGVRIVSFTSFRQNRLAQAANFNLYYDIINKTVGIERKTERFFANLTLLIDIFSMGFANYLVAKEERDHEHGEYGQRKSK", "not soluble"),
]
